system: XF 498 CNS; test: NCI tumour cell line growth inhibition, 48 h
experimental.readout: TGI (µM)
Unit µM implied. Number only.

Noted TGI for COc1ccc(COC2CC(OC)OC(C)C2OC(=O)c2ccccc2)cc1 (configuration not stated) , tested on XF 498 CNS: 49.4

Noted TGI for `CCc1cccc(C)c1NC(=O)C1=C(C)NC(C)=C(C(=O)Nc2c(C)cccc2CC)C1c1ccc2c(c1)OCO2` , tested on XF 498 CNS: 31

Noted TGI for `CC(C)NC(=O)OCc1c2c(n(C)c1COC(=O)NC(C)C)-c1ccccc1CC2` , tested on XF 498 CNS: 28.2

Noted TGI for O=C(O)C(CS)NCc1c2ccccc2nc2ccccc12 (configuration not stated) , tested on XF 498 CNS: 53.7
